Catalogue of EE readings, one per entry.
Experiment: mRNA encapsulation efficiency of lipid nanoparticles
Format: physicochemical
Conditions: LNP with cationic lipid CL-C
Method: In embodiments, the lipid nanoparticle encapsulates a nucleic acid, optionally an mRNA encoding a peptide or protein. In embodiments, the lipid nanoparticle encapsulates an mRNA encoding a peptide or protein, optionally for use in a vaccine. In embodiments, the peptide is an antigen. […] In embodiments, the encapsulation percentage is calculated by performing the Ribogreen assay (Invitrogen) with and without the presence of 0.1% Triton-X 100. […]
Reply with just the number (in %).

Reference set (3 entries):
>  <compound>
CCCCCCCCC(CCCCC)COC(=O)CCC(=O)OCC(COP(=O)(O)OCCN)OC(=O)CCC(=O)OCC(CCCCC)CCCCCCCC (stereo not drawn) [Compound 4]

>  <EE (%)>
87

$$$$
>  <compound>
CCCCCCCCCCC(CCCCCCCCCC)OC(=O)CCCCCCC(=O)OCC(COP(=O)(O)OCCN(C)C)OC(=O)CCCCCCC(=O)OC(CCCCCCCCCC)CCCCCCCCCC (stereo not drawn)

>  <EE (%)>
92

$$$$
>  <compound>
CC(C)CCCCOC(=O)CCCCCCC(=O)OCC(COP(=O)(O)OCCN)OC(=O)CCCCCCC(=O)OCCCCC(C)C (stereo not drawn)

>  <EE (%)>
69

$$$$

Looking up CCCCCCCCCC(CCCCCCCCC)C(=O)OCC(COP(=O)(O)OCCN(C)C)OC(=O)C(CCCCCCCCC)CCCCCCCCC (stereo not drawn) , I found its EE recorded as 78

Looking up CCCCCCCCOC(=O)CCCCCCCC(=O)OCC(COP(=O)(O)OCCN(C)C)OC(=O)CCCCCCCC(=O)OCCCCCCCC (stereo not drawn) , I found its EE recorded as 92

Looking up CCCCCCCCC(CCCCC)COC(=O)CCC(=O)OCC(COP(=O)(O)OCCN)OC(=O)CCC(=O)OCC(CCCCC)CCCCCCCC (stereo not drawn) [Compound 5] , I found its EE recorded as 88

* * *

test system: hEPO; test: IM EPO expression of LNPs containing new helper lipids (hEPO in serum by ELISA); assay type: in vivo, female BALB/cJ mice; settings: CL-A LNP; single IM injection; serum 24 hours post injection
quantity: 24-h EPO (ng/mL)
Reply with just the number (in ng/mL).

Looking up CCCCCCCCC(CCCCC)COC(=O)CCC(=O)OCC(COP(=O)(O)OCCN(C)C)OC(=O)CCC(=O)OCC(CCCCC)CCCCCCCC (stereo not shown) , I found its 24-h EPO recorded as 10.447

* * *

assay: Dynamic light scattering of lipid nanoparticles (size, PDI); assay type: physicochemical; conditions: LNP with cationic lipid CL-A
quantity: Polydispersity Index (PDI)
Answer using only a numeral; do not append any unit.

>  <molecule>
CCCCCCCCC(CCCCCCCC)C(=O)OCCCCCC(=O)OCC(COP(=O)(O)OCCN(C)C)OC(=O)CCCCCOC(=O)C(CCCCCCCC)CCCCCCCC (stereo not drawn)

>  <Polydispersity Index (PDI)>
0.071

$$$$
>  <molecule>
CCCCCCCCCCC(CCCCCCCCCC)OC(=O)CCCCCCC(=O)OCC(COP(=O)(O)OCCN(C)C)OC(=O)CCCCCCC(=O)OC(CCCCCCCCCC)CCCCCCCCCC (stereo not drawn)

>  <Polydispersity Index (PDI)>
0.075

$$$$
>  <molecule>
CCCCCCCCC(CCCCCCCC)OC(=O)CCCCCCC(=O)OCC(COP(=O)(O)OCCN(C)CCCO)OC(=O)CCCCCCC(=O)OC(CCCCCCCC)CCCCCCCC (stereo not drawn)

>  <Polydispersity Index (PDI)>
0.059

$$$$
>  <molecule>
CCCCCCCCCC(CCCCCCCCC)C(=O)OCC(COP(=O)(O)OCCN)OC(=O)C(CCCCCCCCC)CCCCCCCCC (stereo not drawn)

>  <Polydispersity Index (PDI)>
0.045

$$$$
>  <molecule>
CC(C)CCCCOC(=O)CCCCCCC(=O)OCC(COP(=O)(O)OCCN(C)C)OC(=O)CCCCCCC(=O)OCCCCC(C)C (stereo not drawn)

>  <Polydispersity Index (PDI)>
0.06

$$$$

Looking up CCCCCCCCC(CCCCCCCC)OC(=O)CCCCCCC(=O)OCC(COP(=O)(O)OCCN(C)C)OC(=O)CCCCCCC(=O)OC(CCCCCCCC)CCCCCCCC (stereo not drawn) , I found its Polydispersity Index (PDI) recorded as 0.050
